Measured values drawn from paper PMC9482650 for this set.

- Assayed system: PICK1, Q9NRD5
- Sequence (Q9NRD5 17-115): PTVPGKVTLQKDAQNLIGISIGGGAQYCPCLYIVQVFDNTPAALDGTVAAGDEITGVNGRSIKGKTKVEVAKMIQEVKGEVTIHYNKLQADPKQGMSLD
- Protocol notes: holdup assay
- Set-up: key: below the threshold = too weak to quantify, mostly under pKd 3.1 to 4
- Assay setup: plain residues with an end cap or a label only (N-terminal biotin on a linker: ado-ado)

{"Binder": "QSARLWETSI [ADAM22, Q9P0K1]", "pKd": 3.91}
{"Binder": "PEYLGLDVPV [ERBB2, P04626]", "pKd": 4.25}
{"Binder": "LPAHHNATRL [SLC34A1, Q06495;Q06495-1]", "pKd": 4.19}
{"Binder": "LPHPHSTTRV [NLGN2, Q8NFZ4]", "pKd": 4.24}
{"Binder": "PKRSFIESNV [TANC1, Q9C0D5]", "pKd": 4.14}
{"Binder": "NLSIEKETKL [ASNSD1, Q9NWL6]", "pKd": 3.95}
{"Binder": "HSGYRLNDYV [CLDN14, O95500]", "pKd": 4.13}
{"Binder": "ETQVTAETVI [TMEM225B, P0DP42]", "pKd": 3.97}
